- MEASUREMENT_PROTOCOL: in vivo
- EXPERIMENTAL_SETUP: male, Wistar, rat, whole blood, po, 10 mg
READOUT_KIND: Cmax

Data request, read-out Cmax, for CO[C@H]1C[C@@H]2CC[C@@H](C)[C@@](O)(O2)C(=O)C(=O)N2CCCC[C@H]2C(=O)O[C@H]([C@H](C)C[C@@H]2CC[C@@H](O)[C@H](OC)C2)CC(=O)[C@H](C)/C=C(\C)[C@@H](O)[C@@H](OC)C(=O)[C@H](C)C[C@H](C)/C=C/C=C/C=C/1C
2670 to 3400 ng/mL
